- protocolText: Plasma free fraction (fP) by ultrafiltration
- Assay type: in vitro ADME, rhesus monkey
- experimentalContext: male, rhesus monkey, plasma, blocked scans (PK11195); n = 3

compound: CC[C@@H](C)N(C)C(=O)c1nc(-c2cccc([18F])c2)c2ccccc2n1 [[^18F]SF51]
fraction unbound: 0.188
